TEST TARGET: HLA-B*27:05
TEST SUMMARY: IEDB peptide-MHC binding, purified MHC/direct/fluorescence; filed as Kd, often an IC50 or EC50 that approximates it; bounds were set here for any values at or beyond the usual limits of such assays
CONDITION LABEL: source organism: Salmonella enterica
pKd: −log10 of the molar value.
MEASUREMENT LABEL: pKd

Ask | Hi! What's the reported pKd for `EIIFYHPTF` on HLA-B*27:05?
Reply | ≤ 4.70

###

TEST TARGET: HLA-A*26:01
TEST SUMMARY: IEDB peptide-MHC binding, purified MHC/competitive/fluorescence; filed as Kd, often an IC50 or EC50 that approximates it; bounds were set here for any values at or beyond the usual limits of such assays
CONDITION LABEL: source organism: Orthohantavirus sinnombreense
pKd: −log10 of the molar value.
MEASUREMENT LABEL: pKd

Ask | # get_value(readout='pKd', item= `LFPELECFF` )
Reply | ≤ 4.70
